- Experimental Target: Secreted effector protein (Yersinia pestis)
- Experiment Description: Inhibition constant for YOP protein tyrosine phosphatase at pH 6.6
Reported Property: Inhibition (mM)
Note: unit mM is implicit; provide only the numeric part.

input: What is its Inhibition for Secreted effector protein (Yersinia pestis)? Entry: "N[C@@H](Cc1ccc(OCP(=O)(O)O)cc1)C(=O)O"
output: 21

input: Input "O=C(O)Cc1ccc(OCP(=O)(O)O)cc1"
output: 12

input: Param item: "O=P(O)(O)CSc1ccccc1"
output: 4.6

input: Same thing, different compound: "O=C(O)c1cccc2cc(OCP(=O)(O)O)ccc12"
output: 2.2

input: What about this compound? "O=P(O)(O)CCSc1ccccc1"
output: 10

input: Request: "O=P(O)(O)COc1ccc2ccccc2c1"
output: 6.3

New cases:
input: # returns recorded Inhibition (system: Secreted effector protein (Yersinia pestis)) for "O=C(O)Cc1ccc(OCCP(=O)(O)O)cc1"
output: 19

input: Continue with "O=P(O)(O)COc1ccccc1"
output: 5

input: Same question for "O=P(O)(O)CCOc1ccccc1" please.
output: 2.17

input: Another compound: "N[C@H](Cc1ccc(OCP(=O)(O)O)cc1)C(=O)O"
output: 0.63

----------
- Experimental Target: Serine/threonine-protein phosphatase (Enterobacteria phage lambda) (UniProt P03772)
- Sequence (P03772 whole entry): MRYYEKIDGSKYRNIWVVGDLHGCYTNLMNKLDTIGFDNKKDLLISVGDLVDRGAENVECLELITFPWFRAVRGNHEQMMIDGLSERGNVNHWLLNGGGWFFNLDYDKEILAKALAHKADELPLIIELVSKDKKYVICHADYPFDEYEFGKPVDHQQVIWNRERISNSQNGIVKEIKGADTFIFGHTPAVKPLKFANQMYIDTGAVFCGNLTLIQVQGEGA
- Experiment Description: Inhibition constant for lambda protein phosphatase in presence of [Mn2+] at 5 mM pH 7.3
Threshold 0.1 mM: Inhibition strictly smaller gives label 1, otherwise label 0.

input: I wonder whether "O=P(O)(O)CCSc1ccccc1" has Inhibition below 0.1 mM. Can you tell?
output: label 0

input: Next up: "O=C(O)c1cccc2cc(OCP(=O)(O)O)ccc12"
output: label 1

input: Now consider "N[C@H](Cc1ccc(OCP(=O)(O)O)cc1)C(=O)O" and answer again.
output: label 1

More entries:
input: Does "O=P(O)(O)COc1ccccc1" have Inhibition strictly under 0.1 mM?
output: label 0

input: # repeat for "N[C@@H](Cc1ccc(OCP(=O)(O)O)cc1)C(=O)O"
output: label 1

input: Try this molecule too: "O=C(O)Cc1ccc(OCP(=O)(O)O)cc1"
output: label 0

input: Quick one: "O=C(O)Cc1ccc(OCCP(=O)(O)O)cc1"
output: label 0

----------
- Experiment Description: Inhibition constant protein phosphatase 2C in presence of [Mn2+] at 5 mM pH 7.5
Inhibition: recorded values

input: Suppose we examine the molecule "N[C@@H](Cc1ccc(OCP(=O)(O)O)cc1)C(=O)O" ; what Inhibition value has been reported?
output: 0.76 mM

---
input: Please give the measured Inhibition for this molecule: "N[C@H](Cc1ccc(OCP(=O)(O)O)cc1)C(=O)O"
output: 0.34 mM

input: # repeat for "O=C(O)Cc1ccc(OCCP(=O)(O)O)cc1"
output: 0.23 mM

input: Next molecule: "O=C(O)c1cccc2cc(OCP(=O)(O)O)ccc12"
output: 0.06 mM

input: Now consider "O=C(O)Cc1ccc(OCP(=O)(O)O)cc1" and answer again.
output: 0.13 mM

----------
- Experiment Description: Inhibition constant for protein phosphatase 2C in presence of [Mn2+] at 1 mM pH 7.5
Reported Property: Inhibition (mM)
Note: unit mM is implicit; provide only the numeric part.

input: // returns reported Inhibition for input "O=P(O)(O)COc1ccccc1"
output: 0.32

input: How about "O=P(O)(O)CCOc1ccccc1" ?
output: 0.4

input: And for "O=P(O)(O)CCSc1ccccc1" ?
output: 0.3

input: Param item: "O=P(O)(O)CSc1ccccc1"
output: 0.17

----------
Let's look at some compounds and their measured Inhibition.
- Experimental Target: Serine/threonine-protein phosphatase (Enterobacteria phage lambda) (UniProt P03772)
- Experiment Description: Inhibition constant for lambda protein phosphatase in presence of [Mn2+] at 5 mM pH 7.3

input: Field: Inhibition (Serine/threonine-protein phosphatase (Enterobacteria phage lambda) (UniProt P03772)). Entry: "O=P(O)(O)CCOc1ccccc1"
output: 0.05 mM

// next entry
input: Notebook entry, Serine/threonine-protein phosphatase (Enterobacteria phage lambda) (UniProt P03772) assay: Inhibition of "O=P(O)(O)CSc1ccccc1" = ?
output: 0.33 mM

----------
- Experimental Target: Alkaline phosphatase (Escherichia coli K-12) (UniProt P00634)
- Sequence (P00634 whole entry): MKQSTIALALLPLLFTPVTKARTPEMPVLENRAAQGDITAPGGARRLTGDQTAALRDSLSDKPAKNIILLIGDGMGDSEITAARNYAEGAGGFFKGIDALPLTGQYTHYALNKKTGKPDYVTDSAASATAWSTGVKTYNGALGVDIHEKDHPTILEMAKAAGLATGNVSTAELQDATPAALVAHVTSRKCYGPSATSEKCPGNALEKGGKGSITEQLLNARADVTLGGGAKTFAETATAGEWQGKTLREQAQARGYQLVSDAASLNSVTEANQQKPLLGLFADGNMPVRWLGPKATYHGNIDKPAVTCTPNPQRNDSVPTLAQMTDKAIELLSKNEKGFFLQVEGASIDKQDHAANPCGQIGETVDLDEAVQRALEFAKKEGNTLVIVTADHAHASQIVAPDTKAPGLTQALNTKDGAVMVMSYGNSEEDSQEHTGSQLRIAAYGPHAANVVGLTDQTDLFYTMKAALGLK
- Experiment Description: Inhibition constant for Escherichia coli alkaline phosphatase at pH 9
# maps each entry to its log10 Inhibition
Hi team, quick reminder: these entries are log10 of Inhibition (mM).

input: Entry "N[C@H](Cc1ccc(OCP(=O)(O)O)cc1)C(=O)O" : reported log10 Inhibition = ?
output: 0.68

input: Another compound to check: "O=C(O)Cc1ccc(OCCP(=O)(O)O)cc1"
output: -0.22

----------
- Experimental Target: Alkaline phosphatase (Escherichia coli K-12) (UniProt P00634)
- Experiment Description: Inhibition constant for Escherichia coli alkaline phosphatase at pH 9
Entries annotated with measured Inhibition
Give the number; mM is assumed, so skip it.

Look over these answered cases.
input: Value lookup for Inhibition; key = "O=P(O)(O)CCOc1ccccc1"
output: 0.1

input: Entry "N[C@@H](Cc1ccc(OCP(=O)(O)O)cc1)C(=O)O" please
output: 5

input: Same read-out for "O=P(O)(O)COc1ccc2ccccc2c1" ?
output: 4

input: Another compound: "O=C(O)c1cccc2cc(OCP(=O)(O)O)ccc12"
output: 4.2

Next:
input: Endpoint output: Inhibition of "O=C(O)Cc1ccc(OCP(=O)(O)O)cc1" . Value?
output: 5.1

input: Also "O=P(O)(O)CCSc1ccccc1" ?
output: 0.9

input: Can you check "O=P(O)(O)CSc1ccccc1" next?
output: 0.04

meta.source: ChEMBL document CHEMBL1138710
